# system: D(3) dopamine receptor (Homo sapiens, UniProt P35462)
# Sequence (P35462 whole entry): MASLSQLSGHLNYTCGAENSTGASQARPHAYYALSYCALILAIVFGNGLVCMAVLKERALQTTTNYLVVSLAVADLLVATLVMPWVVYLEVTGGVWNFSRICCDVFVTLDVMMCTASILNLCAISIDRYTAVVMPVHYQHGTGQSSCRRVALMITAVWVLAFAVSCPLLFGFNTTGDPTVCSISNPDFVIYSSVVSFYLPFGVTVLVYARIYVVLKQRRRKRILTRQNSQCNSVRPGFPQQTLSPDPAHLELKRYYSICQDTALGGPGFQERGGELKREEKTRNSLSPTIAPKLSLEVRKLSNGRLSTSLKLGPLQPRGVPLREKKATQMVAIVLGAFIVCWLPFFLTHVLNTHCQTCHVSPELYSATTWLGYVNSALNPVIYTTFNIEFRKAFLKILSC
# assay: Effective concentration against dopamine D3 receptor
pEC50: −log10 of the molar value.
measured-parameter: pEC50

{"compound": "CCCN(CCC)[C@H]1CCn2nccc2C1", "experimental-result": 8.47}
{"compound": "CCCN(CCC)C1CCn2ncc(Cl)c2C1 (configuration not stated)", "experimental-result": 8.35}

---

# pKi values compiled below
# system: D(2) dopamine receptor (Homo sapiens, UniProt P14416)
# Sequence (P14416 whole entry): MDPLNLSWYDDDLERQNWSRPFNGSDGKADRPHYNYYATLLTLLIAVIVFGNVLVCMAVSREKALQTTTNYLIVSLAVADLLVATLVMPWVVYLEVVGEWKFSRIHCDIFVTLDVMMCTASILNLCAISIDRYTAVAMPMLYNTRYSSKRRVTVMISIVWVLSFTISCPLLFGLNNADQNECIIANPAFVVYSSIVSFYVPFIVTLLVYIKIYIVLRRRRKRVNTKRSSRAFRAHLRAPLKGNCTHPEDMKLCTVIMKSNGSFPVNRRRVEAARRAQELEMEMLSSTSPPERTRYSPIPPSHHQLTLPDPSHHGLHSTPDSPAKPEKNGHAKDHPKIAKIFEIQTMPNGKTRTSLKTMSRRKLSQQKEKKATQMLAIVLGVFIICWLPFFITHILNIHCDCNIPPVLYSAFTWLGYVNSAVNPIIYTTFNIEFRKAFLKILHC
# assay: biochemical
# Type: cell-based, ovary
pKi: −log10 of the molar value.

{"compound": "CCCN(CCC)C1CCn2ncc(Cl)c2C1 (stereo not drawn)", "pKi": 6.68}
{"compound": "CCCN(CCC)[C@H]1CCn2nccc2C1", "pKi": 6.60}
{"compound": "CCCN(CCC)C1CCn2nccc2C1 (racemic)", "pKi": 6.80}

---

# system: D(2) dopamine receptor (Homo sapiens, UniProt P14416)
# assay: Binding affinity towards human dopamine receptor 2 (short) expressed in Chinese hamster ovary cells using [3H]spiperone (0.5 nM) as radioligand
# Assay type: cell-based
pKi: −log10 of the molar value.
Recorded pKi values for a group of molecules are listed next.

{"molecule": "CCCN(CCC)C1CCn2ncc(C=O)c2C1 (stereo not given)", "pKi": 5.40}
{"molecule": "CCCN(CCC)C1CCn2ncc(CO)c2C1 (stereo not given)", "pKi": "< 4.70"}
{"molecule": "CCCN(CCC)C1CCn2ncc(C(=O)OC)c2C1 (stereo not given)", "pKi": "< 4.70"}
{"molecule": "CCCN(CCC)[C@@H]1CCn2nccc2C1", "pKi": "< 4.70"}
{"molecule": "CCCNC1CCn2ncc(C(=O)OC)c2C1 (stereo not given)", "pKi": "< 4.00"}

---

Listed below: Ki values for each entry.
# system: D(4) dopamine receptor (Homo sapiens, UniProt P21917)
# Sequence (P21917 whole entry): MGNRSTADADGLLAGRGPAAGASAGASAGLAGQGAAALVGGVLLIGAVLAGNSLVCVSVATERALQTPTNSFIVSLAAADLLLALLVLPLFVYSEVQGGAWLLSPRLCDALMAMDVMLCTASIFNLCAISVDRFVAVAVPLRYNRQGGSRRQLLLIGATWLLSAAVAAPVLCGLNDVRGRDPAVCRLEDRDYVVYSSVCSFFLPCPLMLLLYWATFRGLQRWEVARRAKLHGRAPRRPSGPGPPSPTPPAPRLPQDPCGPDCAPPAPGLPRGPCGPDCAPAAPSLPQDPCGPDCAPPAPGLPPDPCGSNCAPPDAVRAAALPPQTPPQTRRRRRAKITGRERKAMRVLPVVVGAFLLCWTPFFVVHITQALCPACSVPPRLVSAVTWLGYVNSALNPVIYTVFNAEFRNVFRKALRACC
# assay: Binding affinity towards human dopamine receptor 4.4 expressed in Chinese hamster ovary cells using [3H]spiperone (0.5 nM) as radioligand
# Assay type: cell-based

{"molecule": "CCCN(CCC)C1CCn2ncc(C=O)c2C1 (stereo not given)", "readout-units": "µM", "censoring-operator": "=", "Ki": 14}
{"molecule": "CCCN(CCC)C1CCn2ncc(C(=O)OC)c2C1 (stereo not given)", "readout-units": "µM", "censoring-operator": ">", "Ki": 20}
{"molecule": "CCCNC1CCn2ncc(C(=O)OC)c2C1 (stereo not given)", "readout-units": "µM", "censoring-operator": "=", "Ki": 90}
{"molecule": "CCCN(CCC)C1CCn2ncc(CO)c2C1 (stereo not given)", "readout-units": "µM", "censoring-operator": "=", "Ki": 16}
{"molecule": "CCCN(CCC)[C@@H]1CCn2nccc2C1", "readout-units": "µM", "censoring-operator": "=", "Ki": 13}

---

# system: UniProtKB P14416
# assay: High binding affinity towards human dopamine receptor 2 (long) expressed in Chinese hamster ovary cells using [3H]spiperone (0.5 nM) as radioligand
# Assay type: cell-based

{"compound": "CCCN(CCC)[C@H]1CCn2nccc2C1", "readout-units": "nM", "Ki": 180}
{"compound": "CCCN(CCC)C1CCn2nccc2C1 (racemic)", "readout-units": "nM", "Ki": 220}
{"compound": "CCCN(CCC)C1CCn2ncc(Cl)c2C1 (stereo not drawn)", "readout-units": "nM", "Ki": 120}
